- test_system: Human α2δ-1 subunit of Cav2.2 calcium channel (Homo sapiens)
- Sequence (P54289 25-1103): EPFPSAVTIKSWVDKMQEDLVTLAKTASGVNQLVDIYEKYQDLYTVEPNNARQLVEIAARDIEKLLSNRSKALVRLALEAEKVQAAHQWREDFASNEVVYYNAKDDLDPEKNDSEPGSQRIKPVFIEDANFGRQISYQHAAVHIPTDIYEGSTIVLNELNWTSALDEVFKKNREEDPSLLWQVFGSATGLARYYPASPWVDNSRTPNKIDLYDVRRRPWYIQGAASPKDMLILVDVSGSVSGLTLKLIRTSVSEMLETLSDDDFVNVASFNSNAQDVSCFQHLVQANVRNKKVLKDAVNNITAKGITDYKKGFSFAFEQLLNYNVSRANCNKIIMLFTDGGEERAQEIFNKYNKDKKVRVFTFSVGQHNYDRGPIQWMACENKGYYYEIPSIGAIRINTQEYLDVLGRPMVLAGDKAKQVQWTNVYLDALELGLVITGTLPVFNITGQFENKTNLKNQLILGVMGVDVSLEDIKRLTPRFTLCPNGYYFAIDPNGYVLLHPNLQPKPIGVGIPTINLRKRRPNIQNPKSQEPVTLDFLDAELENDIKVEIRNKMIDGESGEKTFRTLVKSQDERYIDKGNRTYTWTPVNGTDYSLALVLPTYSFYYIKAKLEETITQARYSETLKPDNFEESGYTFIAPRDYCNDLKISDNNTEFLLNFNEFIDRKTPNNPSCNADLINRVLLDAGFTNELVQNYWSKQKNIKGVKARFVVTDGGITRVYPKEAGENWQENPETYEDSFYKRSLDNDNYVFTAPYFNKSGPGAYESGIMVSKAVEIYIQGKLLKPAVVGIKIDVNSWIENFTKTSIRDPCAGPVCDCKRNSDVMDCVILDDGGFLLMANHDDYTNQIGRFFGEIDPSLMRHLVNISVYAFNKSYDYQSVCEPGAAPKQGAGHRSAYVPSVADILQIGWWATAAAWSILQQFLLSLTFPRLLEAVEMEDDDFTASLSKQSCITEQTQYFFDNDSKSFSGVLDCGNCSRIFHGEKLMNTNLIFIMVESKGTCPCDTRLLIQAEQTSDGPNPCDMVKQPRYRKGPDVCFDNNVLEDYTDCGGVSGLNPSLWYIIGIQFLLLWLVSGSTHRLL
- experimental_details: Binding assay to human α2δ-1 subunit of Cav2.2 calcium channel, [3H]-Gabapentin
- condition_info: human α2δ-1 enriched membranes, 15 nM [3H]-Gabapentin; read-out: Ki (nM) alpha2delta Hum
- Description: Binding Assay to Human α2δ-1 Subunit of Cav2.2 Calcium Channel. Human α2δ-1 enriched membranes (2.5 μg) were incubated with 15 nM of radiolabeled [3H]-Gabapentin in assay buffer containing Hepes-KOH 10 mM, pH 7.4. NSB (non specific binding) was measured by adding 10 μM pregabalin. […] Filter plates were dried at 60° C. for 1 hour and 30 μl of scintillation cocktail were added to each well before radioactivity reading. Readings were performed in a Trilux 1450 Microbeta radioactive counter (Perkin Elmer).
metric: Ki

                                    compound                               test_system  endpoint_value
 0  CNCCC(c1cccs1)N1CCc2ccc(C#N)cc21 (stereo not drawn)  Human α2δ-1 subunit of Cav2.2 calcium channel (Homo sapiens)   100 to 500 nM
 1     CNCC[C@@H](c1cccs1)N1c2ccccc2C[C@H]1C  Human α2δ-1 subunit of Cav2.2 calcium channel (Homo sapiens)       ≥ 3000 nM
 2          CNCC[C@@H](c1cccs1)N1CCc2ncccc21  Human α2δ-1 subunit of Cav2.2 calcium channel (Homo sapiens)   100 to 500 nM
 3  CNCC[C@@H](c1ccsc1)N1CC(C)(C)c2ncc(C)cc21  Human α2δ-1 subunit of Cav2.2 calcium channel (Homo sapiens)  500 to 3000 nM
 4  CNCC[C@@H](c1ccsc1)N1CC(C)(C)c2nc(C)c(F)cc21  Human α2δ-1 subunit of Cav2.2 calcium channel (Homo sapiens)   100 to 500 nM
 5  CNCCC(c1cccs1)N1CCCc2ccccc21 (stereo not drawn)  Human α2δ-1 subunit of Cav2.2 calcium channel (Homo sapiens)       ≥ 3000 nM
 6    CCc1cnc2c(c1)N([C@@H](CCNC)c1cccs1)CC2  Human α2δ-1 subunit of Cav2.2 calcium channel (Homo sapiens)       ≥ 3000 nM
 7        CNCC[C@H](c1ccsc1)N1CCc2ncc(F)cc21  Human α2δ-1 subunit of Cav2.2 calcium channel (Homo sapiens)   100 to 500 nM
 8    CNCC[C@H](c1cccs1)N1CCc2nc(C(C)C)ccc21  Human α2δ-1 subunit of Cav2.2 calcium channel (Homo sapiens)  500 to 3000 nM
 9          CNCC[C@@H](c1nccs1)N1CCc2ncccc21  Human α2δ-1 subunit of Cav2.2 calcium channel (Homo sapiens)       ≥ 3000 nM
10  CNCC[C@@H](c1ccsc1)N1CC(C)(C)c2ncc(F)cc21  Human α2δ-1 subunit of Cav2.2 calcium channel (Homo sapiens)   100 to 500 nM
11  CNCC[C@H](c1ccsc1)N1CC(C)(C)c2nc(C)ccc21  Human α2δ-1 subunit of Cav2.2 calcium channel (Homo sapiens)   100 to 500 nM
12   CNCC[C@@H](c1ccsc1)N1CCc2nc(C(C)C)ccc21  Human α2δ-1 subunit of Cav2.2 calcium channel (Homo sapiens)  500 to 3000 nM
13  CNCC[C@@H](c1cccs1)N1CCc2c(C#N)cccc21 [Example 111]  Human α2δ-1 subunit of Cav2.2 calcium channel (Homo sapiens)  500 to 3000 nM
14     CCc1cnc2c(c1)N([C@H](CCNC)c1ccsc1)CC2  Human α2δ-1 subunit of Cav2.2 calcium channel (Homo sapiens)   100 to 500 nM
15       CNCC[C@@H](c1ccsc1)N1CCc2ncc(F)cc21  Human α2δ-1 subunit of Cav2.2 calcium channel (Homo sapiens)   100 to 500 nM
16  CNCCC(c1cccs1)N1CC(C)(C)c2nc(OC)ccc21 (stereo not drawn)  Human α2δ-1 subunit of Cav2.2 calcium channel (Homo sapiens)   100 to 500 nM
17  CNCC[C@@H](c1cccc(F)c1)N1CC(C)(C)c2ncccc21  Human α2δ-1 subunit of Cav2.2 calcium channel (Homo sapiens)       ≥ 3000 nM
18     CNCCC(c1ccsc1)N1CCc2ccccc21 (racemic)  Human α2δ-1 subunit of Cav2.2 calcium channel (Homo sapiens)       ≥ 3000 nM
19       CNCC[C@@H](c1ccc(C)s1)N1CCc2ncccc21  Human α2δ-1 subunit of Cav2.2 calcium channel (Homo sapiens)  500 to 3000 nM
20  CNCCC(c1cccs1)N1CC(C)(C)c2ccccc21 (stereo not drawn)  Human α2δ-1 subunit of Cav2.2 calcium channel (Homo sapiens)  500 to 3000 nM

Data provenance is patent US20200207759A1.
